- Tested system: human mAChR M4 (Homo sapiens)
- Construct: expressed in transfected cells; host or cells: CHO-K1 (American Type Culture Collection), stably expressing hM4 and Gqi5
- Sequence (P08173 whole entry): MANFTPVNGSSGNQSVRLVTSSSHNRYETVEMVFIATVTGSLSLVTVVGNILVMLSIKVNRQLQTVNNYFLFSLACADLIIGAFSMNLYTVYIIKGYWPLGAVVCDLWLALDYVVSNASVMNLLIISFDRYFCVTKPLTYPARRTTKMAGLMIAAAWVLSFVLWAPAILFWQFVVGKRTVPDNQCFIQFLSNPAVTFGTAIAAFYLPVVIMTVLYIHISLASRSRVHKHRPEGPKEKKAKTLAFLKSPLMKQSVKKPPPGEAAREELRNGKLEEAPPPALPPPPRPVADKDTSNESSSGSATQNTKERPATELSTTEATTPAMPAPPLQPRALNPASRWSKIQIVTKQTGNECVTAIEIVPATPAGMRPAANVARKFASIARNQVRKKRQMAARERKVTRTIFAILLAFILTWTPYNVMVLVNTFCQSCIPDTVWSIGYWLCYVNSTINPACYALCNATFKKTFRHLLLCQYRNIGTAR
- Assay details: mAChR M4 cell-based functional assay: calcium mobilization (Fluo-4, FDSS), potentiation of EC20 acetylcholine response in hM4-Gqi5 CHO-K1 cells
- Condition description: CHO-K1, % ACh maximum at 30 μM; human M4
- Method: […] Calcium flux was measured using the Functional Drug Screening System (FDSS) 6000 or 7000 (Hamamatsu Corporation, Tokyo, Japan) as an increase in the fluorescent static ratio. […] Agonist activity was analyzed as a concentration-dependent increase in calcium mobilization upon compound addition. Positive allosteric modulator activity was analyzed as a concentration-dependent increase in the EC20 acetylcholine response. […]
Observable: Emax at 30 µM (%)

Examples with their reported Emax at 30 µM follow.
Cc1cc2nccc(=O)n2nc1N1CCc2ncc(Nc3cc(F)nc(F)c3)cc2C1	101
Cc1ccncc1Nc1cnc2c(c1)CN(c1nn3c(=O)ccnc3cc1C)CC2	87
Cc1cc2nccc(=O)n2nc1N1CCc2ncc(Nc3cnccn3)cc2C1	64
Cc1c(N2CCc3ncc(N4C(=O)Cc5ncccc54)cc3C2)nn2c(=O)ccnc2c1C	50

a = COCc1cc(=O)n2nc(N3CCc4ncc(-c5ccccc5OC(F)(F)F)cc4C3)c(C)cc2n1
b = Cc1cc2nccc(=O)n2nc1N1CCc2ncc(Nc3cccc(C#N)c3)cc2C1
Asked: Select the item whose Emax at 30 µM value is smaller, choosing between a and b . // caller expects the label of the chosen entry
Given back: a
(a: 65%, b: 97%)

a = Cc1cc2nccc(=O)n2nc1N1CCc2ncc(-c3c(C)noc3C)cc2C1
b = Cc1cc2nccc(=O)n2nc1N1CCc2ncc(N3CC4(COC4)C3)cc2C1
Asked: When a and b are compared, which has the higher number for Emax at 30 µM? // caller expects the label of the chosen entry
Given back: a

1 = COCc1cc(=O)n2nc(N3CCc4ncc(-c5cc(F)ccn5)cc4C3)c(C)cc2n1
2 = Cc1cc2nccc(=O)n2nc1N1CCc2ncc(Nc3ccc(C4CC4)nc3)cc2C1
Asked: When 1 and 2 are compared, which has the higher number for Emax at 30 µM? // caller expects the label of the chosen entry
Given back: 1
(1: 83%, 2: 58%)
